Provenance of the data: patent US20240174696A1

target: Human LATS2 catalytic domain (Homo sapiens (Human), UniProt Q9NRM7); assay: LATS2 High ATP HTRF Assay; assay type: biochemical; settings: no asterisk: LATS2 High ATP HTRF Assay, 5000 μM ATP, 0.05 nM LATS2
Sequence (Q9NRM7 553-1088): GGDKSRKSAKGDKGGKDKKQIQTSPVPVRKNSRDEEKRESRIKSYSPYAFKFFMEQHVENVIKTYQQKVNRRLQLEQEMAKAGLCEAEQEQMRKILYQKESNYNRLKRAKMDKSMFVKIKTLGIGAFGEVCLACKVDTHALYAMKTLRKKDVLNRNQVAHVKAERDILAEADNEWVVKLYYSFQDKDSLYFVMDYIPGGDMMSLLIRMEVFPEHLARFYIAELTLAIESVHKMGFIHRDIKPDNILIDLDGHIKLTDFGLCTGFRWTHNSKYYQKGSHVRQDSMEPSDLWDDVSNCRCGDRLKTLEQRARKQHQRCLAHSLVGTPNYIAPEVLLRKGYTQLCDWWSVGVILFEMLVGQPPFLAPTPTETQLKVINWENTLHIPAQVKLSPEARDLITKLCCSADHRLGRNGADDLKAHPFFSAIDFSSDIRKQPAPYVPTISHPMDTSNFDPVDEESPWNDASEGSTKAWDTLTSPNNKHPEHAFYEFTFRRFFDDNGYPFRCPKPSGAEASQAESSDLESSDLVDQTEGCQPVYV
Sequence (Q7L9L4 whole entry partner, the tested form may be a part): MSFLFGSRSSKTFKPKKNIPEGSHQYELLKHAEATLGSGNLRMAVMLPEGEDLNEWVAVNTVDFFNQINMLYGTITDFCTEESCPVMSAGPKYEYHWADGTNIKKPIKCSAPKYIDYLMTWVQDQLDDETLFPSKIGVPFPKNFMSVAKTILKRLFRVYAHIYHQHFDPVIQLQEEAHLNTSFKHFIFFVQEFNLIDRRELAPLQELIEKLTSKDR
So basically, if Ki comes in under 100 pM it's MET, and if it's 100 pM or more it's NOT MET.

OCCN1CCC2(CCN(c3nc(-c4ccncc4)nc4cnccc34)CC2)C1	NOT MET
c1cc2c(N3CCC4(CCNC4)CC3)nc(-c3ccnc4[nH]ccc34)nc2cn1	NOT MET
N#CCCN1CCC2(CCN(c3nc(-c4ccncc4)nc4cnccc34)CC2)C1	NOT MET
Cc1n[nH]cc1-c1nc(N2CCC3(CCNC3)CC2)c2ccnc(O)c2n1	NOT MET
Cc1n[nH]cc1-c1nc(N2CCC3(CCN(C)C3)CC2)c2cc(Cc3cccnc3)ncc2n1	MET
Cc1[nH]ncc1-c1nc(N2CCC3(CCN(CC(F)F)C3)CC2)c2ccncc2n1	MET
FCCCN1CCC2(CCN(c3nc(-c4ccncc4)nc4cnccc34)CC2)C1	MET
Cc1[nH]ncc1-c1nc(N2CCC3(CC2)CCN([C@H]2CCC[C@@H]2O)C3)c2ccncc2n1 (single isomer, unassigned)	MET
Cc1n[nH]cc1-c1nc(N2CCC3(CCN(CC(C)(C)O)C3)CC2)c2ccncc2n1	MET
COc1cncc2nc(-c3ccncc3)nc(N3CCC4(CCN(CC5(O)CCC5)C4)CC3)c12	NOT MET
Cc1n[nH]cc1-c1nc(N2CCC3(CCN(CCO)C3)CC2)c2ccncc2n1	MET
Cc1cc2c(N3CCC4(CCNC4)CC3)nc(-c3c[nH]nc3C)nc2cn1	NOT MET
F[C@@H]1CNCC12CCN(c1nc(-c3ccncc3)nc3cnccc13)CC2	NOT MET
CN1CCC2(CCN(c3nc(-c4ccncc4)nc4cncc(OC5CC(C#N)C5)c34)CC2)C1 (centres unmarked)	NOT MET
NC(=O)CCN1CCC2(CCN(c3nc(-c4ccncc4)nc4cnccc34)CC2)C1	NOT MET
COc1cncc2nc(-c3c[nH]nc3C)nc(N3CCC4(CCN(CC5COC5)C4)CC3)c12	MET
FC(F)(F)Cc1cc2c(N3CCC4(CCNC4)CC3)nc(-c3ccncc3)nc2cn1	MET
CN1CCC2(CCN(c3nc(-c4ccncc4)nc4c(Cl)nccc34)CC2)C1	NOT MET
O=C1CC2(CCN(c3nc(-c4ccncc4)nc4cnccc34)CC2)CN1	NOT MET
Cc1[nH]ncc1-c1nc(N2CCC3(CC2)CCN([C@@H]2CC[C@H]2O)C3)c2ccncc2n1 (single isomer, unassigned)	MET
Cc1n[nH]cc1-c1nc(N2CCC3(CCN(C)C3)CC2)c2cc(Cn3cc(Cl)cn3)ncc2n1	MET
O[C@@H]1COC[C@H]1N1CCC2(CCN(c3nc(-c4ccncc4)nc4cnccc34)CC2)C1 (single isomer, unassigned)	NOT MET
FC(F)(F)CN1CCC2(CCN(c3nc(-c4ccncc4)nc4cnccc34)CC2)C1	NOT MET
CS(=O)(=O)NCCN1CCC2(CCN(c3nc(-c4ccncc4)nc4cnccc34)CC2)C1	NOT MET
c1cc(-c2cc(N3CCC4(CCNC4)CC3)c3ccncc3n2)ccn1	NOT MET
Cc1[nH]ncc1-c1nc(N2CCC3(CC2)CCN([C@H]2CC[C@@H]2O)C3)c2ccncc2n1 (single isomer, unassigned)	MET
FC(F)Oc1cncc2nc(-c3ccncc3)nc(N3CCC4(CCNC4)CC3)c12	MET
Cc1cncc2nc(-c3ccncc3)nc(N3CCC4(CCNC4)CC3)c12	NOT MET
N#Cc1cnccc1-c1nc(N2CCC3(CCNC3)CC2)c2ccncc2n1	NOT MET
c1cc(-c2nc(N3CCC4(CCN(c5cc[nH]n5)C4)CC3)c3ccncc3n2)ccn1	NOT MET
Fc1[nH]ncc1-c1nc(N2CCC3(CCNC3)CC2)c2ccncc2n1	NOT MET
c1cc(-c2nc(N3CCC4(CCNC4)CC3)c3ccncc3n2)ccn1	NOT MET
